The values you see were collected from PubChem BioAssay.

Experiment: anti-His antibody binders, primary screen, artefact control for SMM control protein annotation, biochemical, small-molecule microarray, 635 nm fluorescence (AID 1128);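 further: score merges feature fluorescence with signal-to-noise for each printed compound spot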
Conditions: anti-His Alexa647 antibody binding, higher = more signal
So basically: composite z-score at 0.3 or higher? That is met. Lower than 0.3? That is not met.

Please review the following examples before continuing.
>  <compound>
COCCOC(=O)N1C(=O)[C@@]2(c3cc(C#CC4(O)CCCCCC4)ccc31)[C@H](C(=O)NC[C@H](O)c1ccccc1)[C@H]1C(=O)O[C@H](c3ccccc3)[C@H](c3ccccc3)N1[C@@H]2c1ccc(O)cc1

>  <classLabel>
met

$$$$
>  <compound>
CCCCN1CC=CC23O[C@@H]4/C=C\CCC(C)OC(=O)C4[C@H]2C(=O)N(C(C)CO)[C@@H]3C1=O (stereo partly drawn)

>  <classLabel>
not met

$$$$
>  <compound>
CCCC[C@@H]1C[C@H]1[C@@H](NC(=O)c1ccc(C(F)(F)F)cc1)c1ccc(C(=O)OC)cc1

>  <classLabel>
met

$$$$
>  <compound>
O=C1N(Cc2ccccc2)c2ccccc2[C@H]2OC(c3ccc(OCCCO)cc3)=N[C@@]12Cc1ccccc1

>  <classLabel>
met

$$$$
>  <compound>
COc1ccc(NC(=O)O[C@H]2[C@H](OC(=O)Nc3ccc4c(c3)OCO4)[C@H](OC(=O)Nc3ccc4c(c3)OCO4)[C@@H](OC)O[C@@H]2CO)cc1

>  <classLabel>
met

$$$$
>  <compound>
COCCOC(=O)N1C(=O)[C@@]2(c3cc(C#CC4=CCCCC4)ccc31)[C@H](c1ccc(OCCO)cc1)N1[C@H](c3ccccc3)[C@H](c3ccccc3)OC(=O)[C@H]1[C@@H]2C(=O)N1CCCCCCC1

>  <classLabel>
met

$$$$

// inclusive: composite z-score at least 0.3? input: COCCOC(=O)N1C(=O)[C@@]2(c3cc(C#CCNC(N)=O)ccc31)[C@H](C(=O)NC[C@H](O)c1ccccc1)[C@H]1C(=O)O[C@H](c3ccccc3)[C@H](c3ccccc3)N1[C@@H]2c1ccc(OCCO)cc1
met

// inclusive: composite z-score at least 0.3? input: COCCOC(=O)N1C(=O)[C@@]2(c3cc(C#Cc4ccc(OC)cc4)ccc31)[C@H](C(=O)N1CCCCCCC1)[C@H]1C(=O)O[C@H](c3ccccc3)[C@H](c3ccccc3)N1[C@@H]2c1ccccc1OCCO
met

// inclusive: composite z-score at least 0.3? input: COc1cc2c(cc1O)C(c1ccc(CN3CCCC3)cc1)N(Cc1ccc([N+](=O)[O-])o1)CC2 (stereo not drawn)
not met

// inclusive: composite z-score at least 0.3? input: C[N+](C)(C)CCCCCCNC(=O)[C@H]1C[C@H]2C(=O)NCC(=O)N2[C@H]1c1cccc(OCCO)c1
met

// inclusive: composite z-score at least 0.3? input: COc1ccccc1CN1C(=O)c2ccccc2[C@](Cc2ccccc2I)(C(=O)NCCCN(C)C)[C@@H]1c1ccc(CO)cc1
not met

// inclusive: composite z-score at least 0.3? input: CC(C)CNC(=O)[C@@H]1c2ccccc2C(=O)N(CC23CC4CC(CC(C4)C2)C3)[C@H]1c1ccc(CO)cc1
met

// inclusive: composite z-score at least 0.3? input: CC(C)C[C@H]1NC(=O)[C@@]23C(=O)N[C@@H](Cc4ccccc4)C2[C@H](C)[C@@]2(C)O[C@H]2C3/C=C/C/C=C\CNC(=O)[C@@H]2CCCN2C1=O (stereo partly drawn)
not met
